- system-under-test: Edg-5 (Homo sapiens, UniProt O95136)
- Construct: expressed in transfected cells; host or cells: HTC rat hepatoma cells
- Sequence (O95136 whole entry): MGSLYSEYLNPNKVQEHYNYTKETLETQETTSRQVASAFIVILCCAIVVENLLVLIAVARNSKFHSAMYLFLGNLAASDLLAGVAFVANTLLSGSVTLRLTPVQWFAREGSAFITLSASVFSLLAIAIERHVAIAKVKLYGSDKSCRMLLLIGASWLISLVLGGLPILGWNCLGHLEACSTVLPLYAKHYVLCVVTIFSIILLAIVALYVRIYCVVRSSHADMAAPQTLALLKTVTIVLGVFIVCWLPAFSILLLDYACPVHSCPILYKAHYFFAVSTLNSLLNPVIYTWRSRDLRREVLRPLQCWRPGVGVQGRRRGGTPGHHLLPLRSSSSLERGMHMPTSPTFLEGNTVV
- measurement-protocol: Calcium mobilization assay (FLIPR), agonist stimulation of calcium increase
- Assay type: cell-based
- conditions: HTC cells expressing Edg-5
measured-property: EC50

compound="Cc1cc(C)c2c(c1)Cc1ccccc1S2(=O)=O [Compound 133]" meas_value="> 25 µM"
compound="CCCCCC(CCCCC)=N/N=C1\\NC(=O)C(CC(=O)O)S1 (stereo not drawn) [Compound 127]" meas_value="> 25 µM"
compound="COc1ccc(-c2nc3ccc(C(=O)O)cc3nc2-c2ccc(OC)cc2)cc1 [Compound 129]" meas_value="> 25 µM"
